# Test system: brain, spinal cord, and DRG of the NHPs
# ASSAY_PROCEDURE: NGS fold enrichment of synthetic library (passage 3) in NHPs, first cross-species screen
# Format: in vivo, cynomolgus macaques (Macaca fascicularis)
# ASSAY_SETUP: synthetic library passage 3, intravenous, RNA NGS, brain of NHPs, relative to wild-type AAV9
Decide using Fold enrichment over AAV9 in the brain of NHPs: a value greater than or equal to 2 fold is 1, a smaller one is 0.

>>> classification("GSGQMQSAGSNQQT")
0
>>> classification("GAGSIIPSGQNQQT")
1
>>> classification("GSGQIKGKMDNQQT")
0
>>> classification("GSRSTGPSGQNQQT")
0

Does the reported Fold enrichment over AAV9 in the brain of NHPs for `GSGFNQRSEQNQQT` fall at or above the 2 fold mark?
1

* * *

# Test system: brains, heart, liver, muscle, and DRG of the NHPs
# ASSAY_PROCEDURE: Maturation of TTM-001 and TTM-002 capsids, NGS enrichment in NHP tissues
# Assay type: in vivo
# ASSAY_SETUP: NGS fold-enrichment, heart of NHPs, relative to AAV9 control
ENDPOINT: Fold Enrichment relative to AAV9, Heart (NHP) (fold)
Number only, in fold; omit the unit.

Some sequences with known Fold Enrichment relative to AAV9, Heart (NHP) results, for comparison:
>>> reported_value("KTINGSGSPHSKAPGLQT")
0.000
>>> reported_value("KTSNESGSPHSKAQNHQT")
0.000

Requested read-out: Fold Enrichment relative to AAV9, Heart (NHP). Entry: `KNADGSGSPHSKAQNQQT`
0.000

* * *

# System: brains, heart, liver, muscle, and DRG of the NHPs
# ASSAY_PROCEDURE: Maturation of TTM-001 and TTM-002 capsids, NGS enrichment in NHP tissues
# Format: in vivo
# ASSAY_SETUP: NGS fold-enrichment, liver RNA of NHPs, relative to AAV9 control
ENDPOINT: Fold Enrichment relative to AAV9, Liver RNA (NHP) (fold)
Report only the number, with the unit fold understood.

# returns recorded Fold Enrichment relative to AAV9, Liver RNA (NHP) (system: brains, heart, liver, muscle, and DRG of the NHPs) for `KTSYGNGSPHSKAQNQQT`
0.000

For the record `KTINGSGSPHSKAQIPPT` , what value of Fold Enrichment relative to AAV9, Liver RNA (NHP) is listed for brains, heart, liver, muscle, and DRG of the NHPs?
0.758

What reported Fold Enrichment relative to AAV9, Liver RNA (NHP) corresponds to `KTINGSGSPHSKAQRTMT` on brains, heart, liver, muscle, and DRG of the NHPs?
1.812

* * *

# Test system: brain
# ASSAY_PROCEDURE: Maturation of TTM-001 capsid, NGS enrichment in brain of CD-1 Outbred mice
# Assay type: in vivo
# ASSAY_SETUP: NGS fold-enrichment of TTM-001 matured AAV capsid variants in the brain of CD-1 Outbred mice; intravenous 1.0×10^12 VG/dose; 14 days in life; RNA; relative to non-matured TTM-001 control
# Description: This Example describes maturation of the TTM-001 (SEQ ID NO: 981 (amino acid) and 983 (DNA), comprising SEQ ID NO: 941) and TTM-002 (SEQ ID NO: 982 (amino acid) and 984 (DNA), comprising SEQ ID NO: 2) capsid variants to further enhance their transduction and biodistribution in the central nervous system and evolve the AAV capsid variants to provide further cross-species compatibility. […]
ENDPOINT: Fold enrichment over TTM-001 (fold)
# value in fold; strip the unit string

Answered cases to consult:
>>> reported_value("KTINGTSSPHCKAQNQQT")
2.017
>>> reported_value("KTINGSGSPHSKAQYCLT")
2.628
>>> reported_value("KTINGSGSPHLLWQNQQT")
3.855
>>> reported_value("KTINGSGSPHSKPVRQQT")
2.529
>>> reported_value("KTINGSGSPHSKKGGQQT")
2.009

Look up Fold enrichment over TTM-001 with brain for this sequence: `KTINGSGSPHSKILWQQT`
2.838

// lookup Fold enrichment over TTM-001 | system=brain | key= `KTINGSGSPHSKGGRQQT`
2.164

What reported Fold enrichment over TTM-001 corresponds to `KTINGSGSPHSKRAMQQT` on brain?
3.801

So what Fold enrichment over TTM-001 did `KTINGSGSPHSTVWNQQT` get with brain?
2.196

Which measured Fold enrichment over TTM-001 belongs to `KTINGSGSPHSTWLNQQT` , tested on brain?
3.583

Form: Entry = KTINGSRSPHSWAQNQQT (peptide inserted in AAV capsid) | System = brain | Fold enrichment over TTM-001 = ____
2.559

Can you look up Fold enrichment over TTM-001 on brain for `KTINGSCSPHSGAQNQQT` ?
2.994

Form field - read-out: Fold enrichment over TTM-001; system: brain; submitted item: `KTINGSGSPHSKAQRGMT`
2.231

Query Fold enrichment over TTM-001 on brain for `KTINGSGSPHSKPTRQQT`
3.201

Enter reported Fold enrichment over TTM-001 observed with brain for `KTINGSGSPHSSRRNQQT`
4.920

Find Fold enrichment over TTM-001 (brain) for the entry `KTINGSGSPHLVFQNQQT`
2.376

* * *

# Test system: brain
# ASSAY_PROCEDURE: NGS fold enrichment of synthetic library (passage 3) in BALB/c mice, first cross-species screen
# Format: in vivo
# ASSAY_SETUP: synthetic library passage 3, intravenous, RNA NGS, brain of BALB/c mice, relative to wild-type AAV9
ENDPOINT: Fold enrichment over AAV9 in the brain of Mice (BALB/c) (fold)
Give the number; fold is assumed, so skip it.

>>> reported_value("GSGMPQSHIQNQQT")
0.334
>>> reported_value("GSRMTQQFGQNQQT")
0.976
>>> reported_value("GVVAHQPSGQNQQT")
2.267

Using the record for `GSGAITHMPQNQQT` , report its Fold enrichment over AAV9 in the brain of Mice (BALB/c).
0.411

Fill blank: measured Fold enrichment over AAV9 in the brain of Mice (BALB/c) of the sequence `GSGLSVHLAQNQQT` is ____.
0.508

What does the data say about its Fold enrichment over AAV9 in the brain of Mice (BALB/c)? Entry: `GSGYNQPHLQNQQT`
0.395

What does the record list as Fold enrichment over AAV9 in the brain of Mice (BALB/c) for `GSGQDMKQHHNQQT` ?
0.239

If you can, please state the reported Fold enrichment over AAV9 in the brain of Mice (BALB/c) value of `GSGHSVSGPQNQQT` .
0.619

* * *

# Tested on: brains, heart, liver, muscle, and DRG of the NHPs
# ASSAY_PROCEDURE: Maturation of TTM-001 and TTM-002 capsids, NGS enrichment in NHP tissues
# Format: in vivo
# ASSAY_SETUP: NGS fold-enrichment of matured AAV capsid variants; NHP brain, RNA; relative to AAV9 control
ENDPOINT: Fold Enrichment relative to AAV9, Brain (NHP) (fold)
Your answer is read as fold, so omit the unit and give the number.

// worked examples, Fold Enrichment relative to AAV9, Brain (NHP) included
>>> reported_value("KTINGSGSPHSKARDWQT")
58.216
>>> reported_value("KTINGSGSPHSKAQHGLT")
55.999
>>> reported_value("KTFNGGGSPHSKAQYQQT")
58.609
>>> reported_value("KNAIGSGSPHSKAQNQQT")
52.516
>>> reported_value("KEVQGSGSPHSKAQNQQT")
58.125
>>> reported_value("KTIIGGGSPHSKAQNPQT")
58.924
>>> reported_value("KNINGSGSPHSKAQNHQT")
54.248
>>> reported_value("KTINGGGSPHSKAQRQQT")
50.998

Bench note: what Fold Enrichment relative to AAV9, Brain (NHP) did `KTVNGGGSPHSKAQNHQT` show?
54.246

* * *

# Test system: brain
# ASSAY_PROCEDURE: Matured TTM-001 and TTM-002 variants, NGS enrichment in mouse brain
# Assay type: in vivo, mice
# ASSAY_SETUP: NGS fold-enrichment, brain of mice, relative to AAV9 control
Fold Enrichment relative to AAV9, Brain (Mouse) vs 80 fold: less than gives met; not less than gives not met.

Use these answered entries as a reference point.
>>> classification("KSVNGNGSPHSKAQNQQT")
"met"
>>> classification("KTINGSGSPHSKAQAIKT")
"met"
>>> classification("KTINGSGSPHGWVQNQQT")
"not met"
>>> classification("KTDKSSGSPHSKAQNQQT")
"not met"
>>> classification("KTDKTSGSPHSKAQNQQT")
"not met"
>>> classification("KTVNGSGSPHSKTQSQQT")
"met"

I wonder whether `KTVNGNGSPHSKAQNHQT` has Fold Enrichment relative to AAV9, Brain (Mouse) below 80 fold. Can you tell?
met

State whether 80 fold exceeds Fold Enrichment relative to AAV9, Brain (Mouse) recorded for `KTERLSGSPHSKAQNQQT` .
not met

Lab note: confirm whether the reported Fold Enrichment relative to AAV9, Brain (Mouse) for this sequence is below 80 fold, equality not counting. sequence: `KTEKGSGSPHSKAQNQQT`
not met
